Target: T1, full length human MSR1 with a C-terminal Myc tag on HEK293.Myc.hMSR1 cells (human, UniProt P21757 1-451)
T1 construct: whole, on cells
T1 sequence (looked up): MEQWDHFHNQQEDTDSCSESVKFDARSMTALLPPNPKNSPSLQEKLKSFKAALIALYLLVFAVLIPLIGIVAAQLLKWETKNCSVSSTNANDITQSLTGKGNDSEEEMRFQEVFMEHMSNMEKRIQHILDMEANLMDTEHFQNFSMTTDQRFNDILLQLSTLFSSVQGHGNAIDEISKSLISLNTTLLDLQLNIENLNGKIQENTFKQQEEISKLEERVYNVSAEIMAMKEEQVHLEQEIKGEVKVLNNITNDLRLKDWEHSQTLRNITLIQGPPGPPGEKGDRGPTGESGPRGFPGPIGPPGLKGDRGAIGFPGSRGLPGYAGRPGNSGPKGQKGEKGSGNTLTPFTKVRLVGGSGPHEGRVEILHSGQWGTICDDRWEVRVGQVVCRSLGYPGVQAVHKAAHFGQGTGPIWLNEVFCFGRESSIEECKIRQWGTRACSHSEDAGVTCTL
Test: ECL cell binding, HEK293.Myc.hMSR1
metric-name: binding signal ratio to isotype control (11 nM) (fold)

# binder, recorded-number
records = [
    ("H1H27747P-N297Q (antibody, human IgG1, V domains shown, human IgG1 Fc with N297Q) VH: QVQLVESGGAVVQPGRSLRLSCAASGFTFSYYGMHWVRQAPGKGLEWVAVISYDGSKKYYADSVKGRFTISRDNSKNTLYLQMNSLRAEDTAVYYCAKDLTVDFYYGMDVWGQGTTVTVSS VL: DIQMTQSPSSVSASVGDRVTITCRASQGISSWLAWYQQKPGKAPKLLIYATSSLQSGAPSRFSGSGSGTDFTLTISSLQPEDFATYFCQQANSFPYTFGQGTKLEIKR", 26),
    ("H1H27731P-N297Q (antibody, V domains shown, human IgG1 Fc with N297Q) VH: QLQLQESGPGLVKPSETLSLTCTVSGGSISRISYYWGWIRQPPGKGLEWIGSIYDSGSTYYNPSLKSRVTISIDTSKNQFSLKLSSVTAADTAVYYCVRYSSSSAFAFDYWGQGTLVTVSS VL: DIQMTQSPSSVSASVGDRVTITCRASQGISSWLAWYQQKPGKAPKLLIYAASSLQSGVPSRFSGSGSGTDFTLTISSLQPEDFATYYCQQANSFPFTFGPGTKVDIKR", 48),
    ("H1H27734P-N297Q (antibody, human IgG1, V domains shown, human IgG1 Fc with N297Q) VH: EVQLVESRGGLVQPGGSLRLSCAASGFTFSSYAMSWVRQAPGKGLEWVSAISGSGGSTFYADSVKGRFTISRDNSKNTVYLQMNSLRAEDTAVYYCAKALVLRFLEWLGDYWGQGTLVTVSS VL: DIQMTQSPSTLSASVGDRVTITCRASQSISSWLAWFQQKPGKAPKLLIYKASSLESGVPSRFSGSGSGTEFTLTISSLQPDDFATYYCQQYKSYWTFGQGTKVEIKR", 40),
    ("H1H27729P-N297Q (antibody, human IgG1, V domains shown, human IgG1 Fc with N297Q) VH: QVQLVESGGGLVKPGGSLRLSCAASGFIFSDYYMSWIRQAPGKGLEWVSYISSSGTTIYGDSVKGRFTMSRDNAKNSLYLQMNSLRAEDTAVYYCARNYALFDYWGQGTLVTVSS VL: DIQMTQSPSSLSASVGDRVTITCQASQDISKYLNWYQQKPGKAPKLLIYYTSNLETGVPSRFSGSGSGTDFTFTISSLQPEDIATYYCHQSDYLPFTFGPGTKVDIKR", 17),
]
